System: DeltatarO mutant
Assay: S. aureus survival, RN4220 and DeltatarO strains – OD600, teichoic acid synthesis inhibitors, primary screen (AID 463173)
Conditions: S. aureus RN4220 wild type/DeltatarO growth, OD600, 18 h, hits give low values, screened at 18.75 µg/mL (by protocol)
Out of some 52,000 compounds screened, about 4,300 (8.3%) were called active. This excerpt belongs to a sample that is enriched for actives.
I'd appreciate it if you marked entries 1 when survival is lower than 60% and -1 when it is not.

Solved entries:
INSERT INTO results (compound, category) VALUES
  ('COC(=O)c1c(NC(=O)COc2cccc(C(F)(F)F)c2)sc2c1CCCC2', 1),
  ('CC1CCCN(c2nc(-c3ccccc3O)nc3ccccc23)C1 (stereo not drawn)', 1),
  ('CCCCN(C)C(=O)Cn1ncc2c([nH]c3ccc(C)cc32)c1=O', -1),
  ('CC(C)NC(=O)C1CC(c2ccc(Cl)cc2)=NO1 (stereo not drawn)', -1),
  ('Cc1cccc(-n2ncc3c(N4CCCC(C)C4)ncnc32)c1 (stereo not drawn)', -1),
  ('COc1ccccc1NC(=O)c1sc2cccc(Cl)c2c1Cl', -1);

Turning to the following compound.
Say whether its survival is strictly beneath 60%. Entry: "CCOCCCNC(=O)CN1C(=O)COc2ccc(S(=O)(=O)N3CCCCCC3)cc21"
-1

* * *

In this section we review reported survival values for a set of molecules.
Test system: DeltatarO mutant
Experiment: S. aureus survival, RN4220 and DeltatarO strains – OD600, teichoic acid synthesis inhibitors, primary screen (AID 463173)
Conditions: S. aureus RN4220 wild type/DeltatarO growth, OD600, 18 h, hits give low values, screened at 18.75 µg/mL (by protocol)
About 4,300 (8.3%) of roughly 52,000 compounds were called active. What follows is part of a selection rich in actives, with near analogues and random picks from the rest.
The figure you give is taken to be in %; do not add the unit.

INSERT INTO measurements (cpd_smiles, reported_metric, numeric_readout) VALUES
  ('COCCn1ccc2c(OCC(=O)Nc3cccc(OC)c3)cccc2c1=O', 'survival', 92);

Just so you know, measured survival for "CCOc1ccc(NC(=O)CSc2ncc3c(n2)-c2ccccc2N(Cc2ccccc2C)S3(=O)=O)cc1" came out at 91

Just so you know, measured survival for "COCCn1ccc2c(OCC(=O)NCc3ccc(F)cc3)cccc2c1=O" came out at 92

Just so you know, measured survival for "Cc1c(NC(=O)Nc2ccccc2C(F)(F)F)c(=O)n(-c2ccccc2)n1C" came out at 92

Just so you know, measured survival for "Cc1cc(C)n2nc(NCc3ccccc3Cl)nc2n1" came out at 90

* * *

In this section we review reported survival values for a set of compounds.
Test system: DeltatarO mutant
Assay: S. aureus survival, RN4220 and DeltatarO strains – OD600, teichoic acid synthesis inhibitors, primary screen (AID 463173)
Details: S. aureus RN4220 wild type/DeltatarO growth, OD600, 18 h, hits give low values, screened at 18.75 µg/mL (by protocol)
In all, about 52,000 compounds went through this assay and about 4,300 (8.3%) were called active. The sample holds actives, similar compounds and a random draw of the others, so the mix is not that of the screen.
The figure you give is taken to be in %; do not add the unit.

Please review the entries below; each comes with its answer.
INSERT INTO assay_data (cpd_smiles, reported_metric, numeric_readout) VALUES
  ('COc1ccc(Br)cc1CNC(=O)CN1CCSc2ccccc21', 'survival', 88),
  ('CCOc1ccc(C(=O)NCc2ccc3c(c2)CCN3C(=O)c2ccc(Cl)cc2)cc1', 'survival', 91);

Now for another entry.
Just so you know, measured survival for "Cc1ccc(-n2nc(C(=O)Nc3ccc(C)c(F)c3)c3c4ccccc4n(C)c3c2=O)cc1" came out at 92
